Assay Method Text: Liver microsomes study, Phase I stability (HLM)
Format: in vitro ADME, human
Condition Summary: pH 7.4; human liver microsomes 0.5 mg/mL, 1 μM test article; read-out: HLM Clint
Measurement Kind: microsomal CLint at 1 μM (µL/min/mg)
Report the value in µL/min/mg with no unit label.

Given the compound `Cc1cnc(Nc2cnn(C3CC3)c2)nc1-c1ccc(C(=O)NCC#N)cc1` , write its reported microsomal CLint at 1 μM. 5.19

Give the value of microsomal CLint at 1 μM reported for the following: Cc1cnc(Nc2cnn(C3CC(C#N)C3)c2)nc1-c1ccc(C(=O)NCC#N)cc1 (stereo not shown) 11.1

Hello, please tell me recorded microsomal CLint at 1 μM for this one: `C[C@@H](C#N)NC(=O)c1ccc(-c2nc(Nc3cnn(C4CCOCC4)c3)ncc2Cl)cc1` 54.8

Supply measured microsomal CLint at 1 μM of `Cc1cnc(Nc2cnn(C3CCN(C(=O)C4CC4)CC3)c2)nc1-c1ccc(C(=O)N[C@@H](C)C#N)cc1` in your reply. 68.4

###

Target Or System: JAK2 (Homo sapiens)
Construct: purchased Carna Biosciences
Assay Method Text: JAK2 microfluidic kinase assay (Caliper EZ Reader II, FAM labeled peptide substrate)
Type: biochemical
Condition Summary: IC50 JAK2 ([…]) (Km ATP), Km ATP
Measurement Kind: IC50

Please give the documented IC50 of Cc1cnc(Nc2cnn(C3CC3)c2)nc1-c1ccc(C(=O)NC2(C#N)CC2)cc1 [Example 160] 0.73 nM

Please supply the value of reported IC50 for the item N#CCNC(=O)c1ccc(-c2nc(Nc3cnn(CC(F)(F)F)c3)ncc2F)cc1F [Example 130] 58.1 nM

State, in one line, measured IC50 of Cc1cnc(Nc2cnn(C)c2)nc1-c1ccc(C(=O)NCC(O)CO)cc1 (stereo not shown) [Example 14] 14.3 nM

For the molecule Cc1cnc(Nc2cnn(C3CCN(C(=O)C4(C(F)(F)F)CC4)CC3)c2)nc1-c1ccc(C(=O)NCC#N)cc1 [Example 115] , give its reported IC50. < 0.25 nM

###

Assay Method Text: Mouse pharmacokinetic study (intravenous and oral)
Format: in vivo
Condition Summary: male, plasma, ICR mice, oral, 5 mg/kg, solution
Measurement Kind: AUC (ng·h/mL)
Expressed in ng·h/mL, but write only the number.

Write down AUC measured for item `Cc1cnc(Nc2cnn(C3CC(C)(C)OC(C)(C)C3)c2)nc1-c1ccc(C(=O)NCC#N)cc1` 113

###

Target Or System: JAK2 (Homo sapiens, UniProt O60674)
Construct: purchased Carna Biosciences
Sequence (O60674 whole entry): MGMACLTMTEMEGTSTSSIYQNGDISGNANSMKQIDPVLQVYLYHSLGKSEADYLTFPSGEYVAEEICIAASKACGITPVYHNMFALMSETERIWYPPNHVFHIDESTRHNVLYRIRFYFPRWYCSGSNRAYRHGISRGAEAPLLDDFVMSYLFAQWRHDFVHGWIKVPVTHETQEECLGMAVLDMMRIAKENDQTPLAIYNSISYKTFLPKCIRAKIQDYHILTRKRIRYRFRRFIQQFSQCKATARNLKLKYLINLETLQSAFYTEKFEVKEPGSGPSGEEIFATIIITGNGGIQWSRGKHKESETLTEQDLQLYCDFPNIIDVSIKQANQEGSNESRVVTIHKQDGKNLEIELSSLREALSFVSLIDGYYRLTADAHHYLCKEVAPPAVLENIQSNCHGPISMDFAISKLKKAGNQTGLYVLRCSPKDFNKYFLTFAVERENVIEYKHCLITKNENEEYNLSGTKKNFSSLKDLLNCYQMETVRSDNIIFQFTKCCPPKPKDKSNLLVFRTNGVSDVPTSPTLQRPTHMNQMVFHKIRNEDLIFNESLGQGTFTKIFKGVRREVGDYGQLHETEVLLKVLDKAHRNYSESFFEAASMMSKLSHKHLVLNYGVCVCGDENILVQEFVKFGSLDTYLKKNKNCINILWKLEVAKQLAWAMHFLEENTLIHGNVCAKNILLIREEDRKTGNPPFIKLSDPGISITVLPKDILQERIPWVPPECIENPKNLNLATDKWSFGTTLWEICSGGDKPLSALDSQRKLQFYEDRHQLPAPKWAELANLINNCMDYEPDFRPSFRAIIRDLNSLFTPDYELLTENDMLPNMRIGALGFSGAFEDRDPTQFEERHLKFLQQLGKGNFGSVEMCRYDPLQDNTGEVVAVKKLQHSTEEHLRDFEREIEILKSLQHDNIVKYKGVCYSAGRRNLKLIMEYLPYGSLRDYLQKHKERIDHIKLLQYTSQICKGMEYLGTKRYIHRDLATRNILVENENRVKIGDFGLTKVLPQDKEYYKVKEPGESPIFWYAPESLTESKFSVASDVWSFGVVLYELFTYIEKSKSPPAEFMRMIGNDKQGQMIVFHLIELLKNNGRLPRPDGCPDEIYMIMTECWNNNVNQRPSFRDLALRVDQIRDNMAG
Assay Method Text: JAK2 microfluidic kinase assay (Caliper EZ Reader II, FAM labeled peptide substrate)
Format: biochemical
Condition Summary: IC50 JAK2 ([…]) (1 mM ATP), 1 mM ATP
Field: IC50. Provide a value for each of the compounds that follow.

Consider the compound `CC[C@@H](C#N)NC(=O)c1ccc(-c2nc(Nc3cnn(CCC#N)c3)ncc2Cl)cc1` . State its measured IC50. 22.1 nM

For `Cc1cnc(Nc2cnn(CC#N)c2)nc1-c1ccc(C(=O)N[C@@H](C)C#N)cc1` , write its IC50. 15 nM

Tell me measured IC50 for `Cc1cnc(Nc2cnn(CCO)c2)nc1-c1ccc(C(=O)N[C@H](C#N)C2CC2)cc1` please. 41 nM

# return recorded IC50 for input `Cc1cnc(Nc2cnn(C3CCN(C(=O)C(C)(C)C)CC3)c2)nc1-c1ccc(C(=O)NCC#N)cc1` < 0.25 nM
